Below is a list of entries, each paired with its recorded melting point value.

Before answering, review these 3 worked examples.
compound: Cc1oc(-c2ccccc2)nc1CCc1ccc(CCCC2SC(=O)NC2=O)cc1 (stereo not given)
melting point: 99 to 100 °C
//
compound: CCC1CC2C3CCC4=CC(=O)CCC4C3CCC2(C)C1OC(=O)CO (stereo not given)
melting point: 156 to 157 °C
//
compound: O=C(O)C1=Cc2cc(-c3cccs3)ccc2OC1C(F)(F)F (stereo not given)
melting point: 209 to 212 °C

**Query** Query: melting point; subject: CCCCCCC(C(=O)OCC)S(=O)(=O)c1ccc(C)cc1 (stereo not given)
**Result** 111 to 123 °C

**Query** Now give it for Cc1ccccc1-c1nc(NCCN(C)C)ncc1N(C)C(=O)C(C)(C)c1cc(C(F)(F)F)cc(C(F)(F)F)c1 too.
**Result** 143 to 144 °C

**Query** Now give it for CC(C)Oc1cccc2c1C(=NNc1ccc(S(N)(=O)=O)cc1)C(=O)N2 too.
**Result** > 250 °C

**Query** Now give it for Cc1cccc(NC(=O)CN2CCN(c3ncccc3C#N)CC2)c1C too.
**Result** 124 to 126 °C

**Query** Now give it for O=c1c2ncn3c2n(c(=O)n1Cc1ccc([N+](=O)[O-])cc1)CC=C3c1cccc(C(F)(F)F)c1 too.
**Result** 230 to 232 °C
